Protocol description: Cmax in rat at […], iv
Assay type: ADME, organism-based
Design: route intravenous, dose 0.44 mg/kg
Assay context: in vivo
Value type: Cmax (ng/mL)
Supply the numeric figure in ng/mL, leaving out any unit text.

Lookup: Query (compound): Cc1c(F)c(Nc2ccc(-c3cn(C)cn3)cn2)cc2c1ncn2CC1CC1 ; field requested: Cmax
Found: 278

###

Protocol description: Cmax in rat at 3 mg/kg, po
Assay type: ADME, organism-based
Parameters: route oral, dose 3 mg/kg
Assay context: in vivo
Value type: Cmax (ng/mL)
Supply the numeric figure in ng/mL, leaving out any unit text.

Lookup: Query (compound): Cc1c(F)c(Nc2ccc(-c3cn(C)cn3)cn2)cc2c1ncn2CC1CC1 ; field requested: Cmax
Found: 520

Taken from ChEMBL document CHEMBL4699487.
